Please provide measured TGFb2 IC50 (SMAD3 phosphorylation in CMVICs, AlphaLISA) for the entries that follow.
Target: T1, TGFβ2 (R&D Systems)
T1 sequence (P61812 303-414, species assumed, looked up): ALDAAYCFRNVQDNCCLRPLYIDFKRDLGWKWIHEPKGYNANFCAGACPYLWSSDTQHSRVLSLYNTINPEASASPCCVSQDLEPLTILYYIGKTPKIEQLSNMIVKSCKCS
Experiment: cell-based or functional assay
One number for each entry, in µg/mL.

Completed entries (count: 6):
binder	unit string	value measured
Felinized anti-TGFβ1,2,3 antibody VH3.2 - VL8 (antibody, V domains shown) VH: DVQLVESGGDLVKPGGSLRLTCVASGYTFSSNVMHWVRQAPGKGLQWVAYVIPIVDIAYYADSVKGRFTISIDNSKNTLYLQMNSLKTEDTATYYCARTLGLVLDAMDYWGQGTLVTVSS VL: DIVMTQSPGSLAGSPGQQVTMNCRASQSLGSSYLAWYQQKPGQHPELLIYGASSRAPGVPDRFSGSGSGTDFTLTISNLQAEDVANYYCQQYADSPITFGQGTKLEIKR	µg/mL	0.037
Caninized anti-TGFβ1,2,3 antibody VH3.6 - VL2 (antibody, V domains shown) VH: EVQLVQSAAEVKKPGASVKVSCKTSGYIFISNVISWVRQAPGQGLEWMGGVIPIVDIANYAQRFKGRVTITADESTSTTYMELSSLRSEDTAVYYCASTLGLVLDAMDYWGQGTLVTVSS VL: ETVLTQSPGTLSLSPGERATLSCRASQSLGSSYLAWYQQKPGQAPRLLIYGASSRAPGVPARFSGSGSGTDFTLTISSLEPEDFAVYYCQQYADSPITFGQGTKLEIKR	µg/mL	0.459
Felinized anti-TGFβ1,2,3 antibody VH2.2 - VL7 (antibody, V domains shown) VH: QVLLVQSGADVRKPGASVKIFCKASGYTFSSNVMHWVRQTPAQGFEWMGSVIPIVDIATYARRFQGRLVLTADTSTNTAYMELRSLKSADTAVYYCARTLGLVLDAMDYWGQGSLVTVSS VL: DIVLTQPPSLSVNLGQTARITCRASQSLGSSYLAWYQQKPGQAPKLVTYGASSRAPGIPDRFSGTNSGITATLTISGARAEDEADYYCQQYADSPITFGQGTKLEIKR	µg/mL	20.6
Caninized anti-TGFβ1,2,3 antibody VH3.1 - VL3 (antibody, V domains shown) VH: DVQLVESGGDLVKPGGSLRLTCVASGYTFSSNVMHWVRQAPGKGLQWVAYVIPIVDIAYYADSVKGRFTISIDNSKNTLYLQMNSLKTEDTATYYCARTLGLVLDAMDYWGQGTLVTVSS VL: EIVMTQSPASLSLSQEEKVTITCRASQSLGSSYLAWYQQKPGQAPKLLIYGASSRAPGVPSRFSGSGSGTDFSFTISSLEPEDVAVYYCQQYADSPITFGQGTKLEIKR	µg/mL	0.954
Caninized anti-TGFβ1,2,3 antibody VH4.11 - VL3 (antibody, V domains shown) VH: QVQLVQSGAEVKKPGSSVKVSCKASGYTFSSNVISWVRQAPGKGLQWVGGVIPIVDIANYAQRFKGRVTLTADTSTNTVYMELSNLRTEDTAVYYCARTLGLVLDAMDYWGQGTLVTVSS VL: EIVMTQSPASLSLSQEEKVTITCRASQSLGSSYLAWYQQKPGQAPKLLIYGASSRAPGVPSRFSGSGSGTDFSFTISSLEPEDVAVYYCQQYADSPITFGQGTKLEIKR	µg/mL	16.7
Felinized anti-TGFβ1,2,3 antibody VH2.2 - VL3 (antibody, V domains shown) VH: QVLLVQSGADVRKPGASVKIFCKASGYTFSSNVMHWVRQTPAQGFEWMGSVIPIVDIATYARRFQGRLVLTADTSTNTAYMELRSLKSADTAVYYCARTLGLVLDAMDYWGQGSLVTVSS VL: EIQMTQSPSSLSASPGDRVTITCRASQSLGSSYLAWYQQKPGKVPKLLIYGASSRAPGVPSRFSGSGSGTDFTLTISSLEPEDAATYYCQQYADSPITFGQGTKLEIKR	µg/mL	1.2

// input: 4 binders below; output: TGFb2 IC50 (SMAD3 phosphorylation in CMVICs, AlphaLISA) for each
1. Felinized anti-TGFβ1,2,3 antibody VH3.2 - VL7 (antibody, V domains shown) VH: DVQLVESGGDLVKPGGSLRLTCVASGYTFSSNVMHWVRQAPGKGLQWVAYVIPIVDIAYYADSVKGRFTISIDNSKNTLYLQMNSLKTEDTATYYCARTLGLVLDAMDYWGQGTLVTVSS VL: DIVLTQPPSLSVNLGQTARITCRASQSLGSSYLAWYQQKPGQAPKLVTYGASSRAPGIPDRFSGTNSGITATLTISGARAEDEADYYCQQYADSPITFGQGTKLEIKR
2. Caninized anti-TGFβ1,2,3 antibody VH3.1 - VL2 (ZTS-122) (antibody, V domains shown) VH: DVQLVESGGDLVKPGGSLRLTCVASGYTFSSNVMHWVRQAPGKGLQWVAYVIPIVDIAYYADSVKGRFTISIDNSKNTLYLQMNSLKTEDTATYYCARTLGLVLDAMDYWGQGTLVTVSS VL: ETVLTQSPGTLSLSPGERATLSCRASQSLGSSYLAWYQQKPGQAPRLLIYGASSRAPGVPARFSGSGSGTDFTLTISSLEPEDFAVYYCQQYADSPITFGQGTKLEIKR
3. Felinized anti-TGFβ1,2,3 antibody VH2.1 - VL8 (antibody, V domains shown) VH: QVLLVQSGADVRKPGASVKIFCKASGYTFTSNVISWVRQTPAQGFEWMGGVIPIVDIANYAQRFKGRLVLTADTSTNTAYMELRSLKSADTAVYYCASTLGLVLDAMDYWGQGSLVTVSS VL: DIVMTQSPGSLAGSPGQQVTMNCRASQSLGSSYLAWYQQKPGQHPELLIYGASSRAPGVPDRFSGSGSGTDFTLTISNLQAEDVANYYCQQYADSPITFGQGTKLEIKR
4. Caninized anti-TGFβ1,2,3 antibody VH4.5 - VL2 (ZTS-207) (antibody, V domains shown) VH: EVQLVESGGDLVKPAGSLRLSCVASGYTFSSNVMSWVRQAPGKGLQWVGYVIPIVDIANYADAVKGRFTISRDNAKNTLYLQMNSLRVEDTAVYYCTRTLGLVLDAMDYWGQGTLVTVSS VL: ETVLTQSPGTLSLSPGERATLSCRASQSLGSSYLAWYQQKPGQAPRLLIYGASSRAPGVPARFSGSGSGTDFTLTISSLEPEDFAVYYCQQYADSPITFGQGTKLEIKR

Response:
0.048
0.508
0.031
0.285
